B1: TRIM35 (parent)
chain: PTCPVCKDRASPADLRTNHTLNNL

variants of: B1; experiment: protein stability index of a GFP-peptide fusion (GPS, HEK-293T) (PSI 1-6); higher = more stable; settings: c terminus: a fixed tail appended;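 also: lentivirally expressed fusions sorted by FACS into six bins by GFP to DsRed ratio, PSI derived from sequencing read proportions per bin multiplied by bin number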
Assign condition met whenever protein stability index does not fall below 3; assign condition not met whenever it does.

Here's what some known entries look like.
[
  {
    "Sequence Input": "PTCPVCKDRACPADLRTNHTLNNL [S11C]",
    "Label": "condition met"
  },
  {
    "Sequence Input": "PTCPVCKPRASPADLRTNHTLNNL [D8P]",
    "Label": "condition not met"
  },
  {
    "Sequence Input": "PTCPVCCDRASPADLRTNHTLNNL [K7C]",
    "Label": "condition not met"
  },
  {
    "Sequence Input": "PTCPVCPDRASPADLRTNHTLNNL [K7P]",
    "Label": "condition met"
  },
  {
    "Sequence Input": "PTCNVCKDRASPADLRTNHTLNNL [P4N]",
    "Label": "condition met"
  },
  {
    "Sequence Input": "PTCPVCKDRASPYDLRTNHTLNNL [A13Y]",
    "Label": "condition not met"
  },
  {
    "Sequence Input": "PTCPVCKDRASPNDLRTNHTLNNL [A13N]",
    "Label": "condition met"
  },
  {
    "Sequence Input": "PTCPSCKDRASPADLRTNHTLNNL [V5S]",
    "Label": "condition met"
  },
  {
    "Sequence Input": "PTCPVCKDNASPADLRTNHTLNNL [R9N]",
    "Label": "condition met"
  },
  {
    "Sequence Input": "PTCPVFKDRASPADLRTNHTLNNL [C6F]",
    "Label": "condition met"
  }
]

Is reported protein stability index greater than or equal to 3 here: PTCPVCKDRAMPADLRTNHTLNNL [S11M]
condition met
